Cited source for all entries: patent US9409952B2

assay: Metabolic stability in human hepatic microsome; type: in vitro ADME; details: microsomes, pH 7.4; human hepatic microsome, NADPH(+); read-out: CL NADPH(+)
Starred links: 1 amine or outer side, 2 acyl side, 3 side chain; linkers in the order of their positions; H or OH if unused. Positions of bridges follow the written chain, without caps; N, C: chain ends. Non-standard residues stand in square brackets, D forms with d. Residues, ends and D or L forms follow the SMILES beside them. *: point of attachment. Phe(3-(CH2)4CO) = O=C([C@H](Cc1cccc(CCCCC(=O)[*:3])c1)N[*:1])[*:2]; hhPhe = N[C@@H](CCCc1ccccc1)C(=O)O; NMeF = CN[C@@H](Cc1ccccc1)C(=O)O; NMeI = CC[C@H](C)[C@H](NC)C(=O)O; NMeL = CN[C@@H](CC(C)C)C(=O)O; NMeV = CN[C@H](C(=O)O)C(C)C; NMeS = CN[C@@H](CO)C(=O)O; NMeA = CN[C@@H](C)C(=O)O; Piperidide = C1CCN(*)CC1; Aze = O=C(O)[C@@H]1CCN1; β3hA = C[C@H](N)CC(=O)O; Abu = CC[C@H](N)C(=O)O; Sar = CNCC(=O)O
# microsomal CLint at 1 uM per record follows
Enter the number, and then the unit.

Below are worked cases with known answers.
>  <Molecule>
CC[C@H](C)[C@H]1C(=O)N[C@@H](Cc2ccccc2)C(=O)N(C)[C@@H](Cc2ccccc2)C(=O)N[C@@H]([C@@H](C)O)C(=O)N2CCC[C@H]2C(=O)N[C@@H](CC(C)C)C(=O)N[C@H](C(=O)N2CCCCC2)Cc2cccc(c2)CCCCC(=O)N[C@@H](C(C)C)C(=O)N(C)CC(=O)N[C@@H](CC(C)C)C(=O)N(C)[C@@H](CC(C)C)C(=O)N[C@@H](C)C(=O)N1C [DP-896] (V[Sar]L[NMeL]A[NMeI]F[NMeF]TPL[Phe(3-(CH2)4CO)]-Piperidide; lactam N-12)

>  <Assay endpoint>
microsomal CLint at 1 uM

>  <Reported measurement>
57 µL/min/mg

$$$$
>  <Molecule>
CC[C@@H]1NC(=O)[C@H](CC(C)C)N(C)C(=O)[C@H](CC(C)C)NC(=O)[C@H](CC(C)C)N(C)C(=O)CN(C)C(=O)C[C@H](C)NC(=O)[C@H](CO)N(C)C(=O)[C@H](CC(C)C)N(C)C(=O)[C@H](CC(C)C)N(C)C(=O)[C@H](CC(C)C)N(C)C(=O)[C@@H](CC(C)C)NC1=O [DP-641] (cyclo([Abu][dL][NMeL][NMeL][NMeL][NMeS][β3hA][Sar][NMeL]L[NMeL]))

>  <Assay endpoint>
microsomal CLint at 1 uM

>  <Reported measurement>
91 µL/min/mg

$$$$
>  <Molecule>
CC(C)C[C@@H]1NC(=O)[C@H](CC(C)C)NC(=O)[C@H](C)N(C)C(=O)C[C@@H](C(=O)N2CCCCC2)NC(=O)[C@H](C(C)C)N(C)C(=O)[C@H](CC(C)C)NC(=O)[C@H](Cc2ccccc2)NC(=O)[C@H]([C@@H](C)O)NC(=O)[C@@H]2CCN2C(=O)[C@H](CC(C)C)NC(=O)[C@H](C)NC1=O [DP-548] ([NMeA]LLAL[Aze]TFL[NMeV]D-Piperidide; lactam N-11)

>  <Assay endpoint>
microsomal CLint at 1 uM

>  <Reported measurement>
16 µL/min/mg

$$$$
>  <Molecule>
CC[C@H](C)[C@H](NC(=O)[C@H](CC(C)C)N(C)C(=O)[C@H](Cc1ccccc1)NC(=O)[C@H](Cc1ccccc1)N(C)C(=O)[C@@H]1CC(=O)N(C)[C@@H](C)C(=O)N[C@@H](C(C)C)C(=O)N[C@@H](CC(C)C)C(=O)N(C)[C@@H](Cc2ccccc2)C(=O)N[C@@H](CC(C)C)C(=O)N[C@@H]([C@@H](C)O)C(=O)N1)C(=O)N1CCCCC1 [DP-921] ([NMeA]VL[NMeF]LTD[NMeF]F[NMeL]I-Piperidide; lactam N-7)

>  <Assay endpoint>
microsomal CLint at 1 uM

>  <Reported measurement>
88 µL/min/mg

$$$$

# next molecule below
Specify measured microsomal CLint at 1 uM for CC[C@H](C)[C@@H]1NC(=O)[C@H](CC(C)C)NC(=O)[C@H](C(C)C)NC(=O)[C@H](CC(C)C)N(C)C(=O)[C@H](CC(C)C)NC(=O)[C@H](CCCc2ccccc2)NC(=O)[C@H]([C@@H](C)O)NC(=O)[C@H](C)N(C)C(=O)[C@H](CC(C)C)NC(=O)[C@H](C)N(C)C(=O)C[C@@H](C(=O)N2CCCCC2)NC1=O [DP-729] ([NMeA]L[NMeA]T[hhPhe]L[NMeL]VLID-Piperidide; lactam N-11) .
54 µL/min/mg
